Source listed as paper PMC9737537.

- Test system: HIV isolates with high growth capability
- assay-summary: Antiretroviral drug response (HIV-RNA copies in PHA-PBMC culture, 7 days), pooled HIV isolates
- Format: cell-based
- particulars: higher growth capability, without any known drug resistance-related mutation
measure-name: IC90 values relative to Cmin / Cmax

> print(dat)
                                   compound                         measure.name                  result
1  Nc1ccn([C@@H]2CS[C@H](CO)O2)c(=O)n1 [lamivudine]  IC90 values relative to Cmin / Cmax  close to or above Cmin
2  O=C1Nc2ccc(Cl)cc2[C@@](C#CC2CC2)(C(F)(F)F)O1 [efavirenz]  IC90 values relative to Cmin / Cmax  close to or above Cmin
3  Nc1nc(=O)n([C@@H]2CS[C@H](CO)O2)cc1F [emtricitabine]  IC90 values relative to Cmin / Cmax  close to or above Cmin
